Recorded values, source the supplement of paper PMC10567573.

- MEASUREMENT DESCRIPTION: protein stability index of a GFP-peptide fusion (GPS, HEK-293T) (PSI 1-6); higher = more stable;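 further: 24-mer peptide tiles fused after GFP, lentivirally expressed, FACS-sorted into six equal bins by GFP/DsRed ratio, decoded by Illumina sequencing, PSI is the read-weighted mean bin number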
- APPLIED CONDITIONS: treatment: DMSO; c terminus: a fixed tail appended
Could you please report measured protein stability index for the items listed next?

Prompt: In one line, give reported protein stability index of the entry KILLDAQHESGQSSSRGSSHCDSP [BNIP3L] .
Completion: 4.91

Prompt: Write down protein stability index measured for item ILELYNIDSHLLLSVLPQLEFKLK [PDS5B]
Completion: 2.64

Prompt: Supply measured protein stability index of LGNGLLRKKTLVPGPPGSSRPVKG [FKBP8] in your reply.
Completion: 3.94

Prompt: Tell me measured protein stability index for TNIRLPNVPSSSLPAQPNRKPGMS [CHMP4C] please.
Completion: 4.66

Prompt: Give me measured protein stability index, please, for this sequence: VSQLYPESIVPIPSSNEEIRLVDD [INTS4]
Completion: 4.92

Prompt: Respond only with protein stability index recorded for FFGVFQSFVVLLYILDNETNFVVQ [CLPTM1]
Completion: 3.19

Prompt: Tell me its protein stability index given MTVPATAIYFTAYDQLKAFLCGRA [SLC25A39] as the entry.
Completion: 2.35

* * *

- MEASUREMENT DESCRIPTION: protein stability index of a GFP-peptide fusion (GPS, HEK-293T) (PSI 1-6); higher = more stable
- APPLIED CONDITIONS: treatment: DMSO; c terminus: a fixed tail appended
Kindly return condition met if reported protein stability index is no lower than 3; return condition not met if it is lower.

Prompt: Can SFFYPVLFVLFMFFGMAFNFIVND [SOAT1] be said to have protein stability index at or above 3?
Completion: condition not met

Prompt: Given the entry LKGYPSLMRSQSPKAQPQTWKSGK [TRIM29] , answer whether its protein stability index meets or surpasses 3.
Completion: condition met

Prompt: Threshold query (protein stability index >= 3) on YQTEQSLRQLVESDINSLRRILDE [KRT33B]
Completion: condition met

Prompt: Confirm if protein stability index reported for the sequence VIWDFLTRGIAKIISAHIHPVCSL [RBBP5] is 3 or above.
Completion: condition met

Prompt: Would you say KALSRKSTSFRVYIMAFDIKSEDM [FBXO33] shows protein stability index at minimum 3?
Completion: condition not met

Prompt: protein stability index >= 3 for ITMMALKVLGELNILPNTQKVTCF [TENT5D] ?
Completion: condition not met

Prompt: Hi team, for GTTMASGGRFRCPSCRHEVVLDRH [TRIM55] , is the recorded protein stability index at or above 3?
Completion: condition not met

Prompt: Could you verify whether the entry LQDGRRKVHYLFPDGKEMAEEYDE [DPCD] shows protein stability index of no less than 3?
Completion: condition met

Prompt: Could you tell me if the measured protein stability index of SLKLKSSHHSKHKAPSKLGLIISG [DLC1] reaches 3 or more?
Completion: condition not met

Prompt: API: above_or_equal(metric=protein stability index, cutoff=3) for item APVLVAAPHSTFFDPIVLLPCDLP [LPCAT4]
Completion: condition not met

* * *

- MEASUREMENT DESCRIPTION: protein stability index of a GFP-peptide fusion (GPS, HEK-293T) (PSI 1-6); higher = more stable
- APPLIED CONDITIONS: treatment: MLN4924 1 uM, 8 h; c terminus: a fixed tail appended
EXPERIMENTAL READOUT: protein stability index
Please give only the number in your answer, with no unit.

Prompt: For the sequence IIKICDFGFAQILIPGDAYTDYVA [CDKL4] , report protein stability index.
Completion: 2.81

Prompt: Write down protein stability index measured for item EDMLWDDLLHGPECRSSVTSDSEG [PHTF1]
Completion: 5.16

Prompt: Identify measured protein stability index corresponding to REYLSEEVQAVHKNTTYDLIANIV [USP39]
Completion: 2.32

Prompt: Recall and state the measured protein stability index for VLVNVLQAIYVIDFFWNETWYLKT [DHCR7] .
Completion: 3.22

Prompt: Specify protein stability index for AGSPIRHENAVQGSAVEVQTYQPP [ISL2] and stop.
Completion: 5.04

Prompt: Determine from records and report protein stability index for CLGLSYDGLLGDNQIMPKTGFLII [MAGEA6]
Completion: 2.49

Prompt: Look up and report measured protein stability index for this entry: EHPGGEEVLREQAGGDATENFEDV [CYB5A]
Completion: 5.54

Prompt: Specify reported protein stability index for the sequence shown: PDVLRTKPAFIGKTNLDGMITVQL [PTPRD]
Completion: 2.13

Prompt: Annotate the sequence LESLPTDPLLLILSFLDYRDLINC [FBXO3] with its measured protein stability index.
Completion: 2.85

Prompt: Tell me its protein stability index given YRQHCTLELGSYIKDLSVVHSDLS [CTDNEP1] as the entry.
Completion: 2.34

Prompt: Answer with the recorded protein stability index for the sequence listed here: CRLKRCVDIGMMKEFILTDEEVQR [VDR]
Completion: 2.53

Prompt: Specify protein stability index for GSCEDEPMDSTMDDAVAGDFALIN [ATE1] and stop.
Completion: 5.44

Prompt: Annotate the sequence DPFVCRLRHLSPTPSEEHMKNKNN [OR4A15] with its measured protein stability index.
Completion: 4.66

* * *

- MEASUREMENT DESCRIPTION: protein stability index of a GFP-peptide fusion (GPS, HEK-293T) (PSI 1-6); higher = more stable
- APPLIED CONDITIONS: treatment: MLN4924 1 uM, 8 h; c terminus: a fixed tail appended
Please use MET whenever protein stability index is not below 3, and NOT MET whenever it is.

Prompt: // inclusive: protein stability index at least 3? input: EELEEALEVERQENEQRRLFIQKE [MNAT1]
Completion: MET

Prompt: API: above_or_equal(metric=protein stability index, cutoff=3) for item GIPWEAGARQISYSIPEELEKGSF [PCDHGA10]
Completion: MET

Prompt: Reported protein stability index at or above 3? LDASGEKMNGSHRDQGSSALSGVG [IKZF1]
Completion: MET

Prompt: Test whether the sequence SLKKGSLVKNLKDTLGLGKTRRKT [NCK2] records protein stability index of 3 or higher.
Completion: MET

Prompt: Hello, I need to know if RRRGPRNKKRGWRRLAQEPLGLEV [NOP53] has measured protein stability index not below 3. Thanks!
Completion: MET

Prompt: Dear colleague, could you confirm whether SQGEVEKLIKCDEIQVDSEEPVFE [KLHL12] has protein stability index at or above 3?
Completion: MET

Prompt: Could you tell me if the measured protein stability index of PELLSTHPFFDTAEPDMDDPAYIA [INTS4] reaches 3 or more?
Completion: MET

Prompt: Hi team, for HAAAVNGDKGALQRLIVGNSALKD [INVS] , is the recorded protein stability index at or above 3?
Completion: MET

Prompt: Entry IREKSRLFDTKHDVYSFAIVIWGV [RIPK4] : is its protein stability index no less than 3?
Completion: NOT MET

Prompt: Threshold query (protein stability index >= 3) on ALVHDHQAYAHYLLATFPRRALAP [ANKRD9]
Completion: NOT MET

Prompt: Check the entry SSCCLHICQGIRGLWGTTLTENTA [PKD2L1] : does protein stability index equal or exceed 3?
Completion: NOT MET

Prompt: Does the sequence ETFSTLKNWVKELRQHGPPNIVVA [RAB22A] have recorded protein stability index that is 3 or more?
Completion: NOT MET

Prompt: Say whether KLFESVECYDPRTQQWTAICPLKE [GAN] shows protein stability index of 3 or more.
Completion: NOT MET

Prompt: hey, is protein stability index for this one >= 3? TRILDGGNPFLDVPQALSATTYKH [PSD2]
Completion: MET

Prompt: Record WTLRRTKELRKDYQGPGTRRLQEV [DYRK1B] ; criterion: protein stability index no lower than 3. Met?
Completion: MET

Prompt: Check the entry IRSSFISSLSFFLKKMGKRLDYLN [FBXO39] : does protein stability index equal or exceed 3?
Completion: NOT MET

Prompt: Kindly determine if protein stability index recorded for MPPKKQAQAGGSKKAEQKKKEKII [ZC3H15] is above or exactly 3.
Completion: MET

Prompt: Entry LTVNTEAQQLLREFEEATGEAGWG [FOXJ1] : is its protein stability index no less than 3?
Completion: MET

Prompt: Entry FKLDKKYQRPQDSEDMWGDEDFTF [FBF1] : is its protein stability index no less than 3?
Completion: MET

Prompt: hey, is protein stability index for this one >= 3? RRDCDALMAGCIQEARERWNFDFV [CDKN1A]
Completion: NOT MET

Prompt: Decide: is the reported value of protein stability index for NLLQDSSTSDSDLTCDSSTSSSDD [C18orf25] equal to or greater than 3?
Completion: MET

Prompt: Kindly determine if protein stability index recorded for TMSRSLDGASVNENHEIYMKDSMS [EPB41L3] is above or exactly 3.
Completion: MET

Prompt: # check: protein stability index of FSGQIRLNEDTIQDVVQAADLLLL [GAN] is greater than or equal to 3
Completion: NOT MET

Prompt: Is protein stability index at least 3? Consider QPVQSKPQKASAPAADPPRYTFAP [PDLIM7]
Completion: MET
